Ref: patent US8163767B2

Where a name gives a salt, the structure may show the parent alone.
For UniProtKB P52333, measured pIC50 is reported for the entries below.
Sequence (P52333 796-1124): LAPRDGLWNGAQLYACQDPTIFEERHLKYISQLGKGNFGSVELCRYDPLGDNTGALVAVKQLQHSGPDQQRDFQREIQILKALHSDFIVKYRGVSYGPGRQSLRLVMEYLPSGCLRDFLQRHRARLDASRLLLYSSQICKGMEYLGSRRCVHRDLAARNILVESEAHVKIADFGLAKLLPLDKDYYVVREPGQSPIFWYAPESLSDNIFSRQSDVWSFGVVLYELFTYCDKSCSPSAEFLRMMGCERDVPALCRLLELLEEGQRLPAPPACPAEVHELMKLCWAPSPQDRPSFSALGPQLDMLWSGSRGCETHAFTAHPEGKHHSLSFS
One number for each entry, as −log10 of the molar value.

>>> recorded_value("C[C@@H]1CCCC[C@@H]1n1c(=O)[nH]c2cnc3[nH]ccc3c21")
8.52

Okay, now this compound:
Give the measured pIC50 of CC[C@@H]1CCCC[C@@H]1n1c(=O)[nH]c2cnc3[nH]ccc3c21 [Example 118, hydrochloride] .
8.29
